// reported pIC50 for each item listed
Target: hCRTH2 receptor (Homo sapiens)
Construct: expressed in transfected cells; host or cells: HEK293
Sequence (Q9Y5Y4 1-395): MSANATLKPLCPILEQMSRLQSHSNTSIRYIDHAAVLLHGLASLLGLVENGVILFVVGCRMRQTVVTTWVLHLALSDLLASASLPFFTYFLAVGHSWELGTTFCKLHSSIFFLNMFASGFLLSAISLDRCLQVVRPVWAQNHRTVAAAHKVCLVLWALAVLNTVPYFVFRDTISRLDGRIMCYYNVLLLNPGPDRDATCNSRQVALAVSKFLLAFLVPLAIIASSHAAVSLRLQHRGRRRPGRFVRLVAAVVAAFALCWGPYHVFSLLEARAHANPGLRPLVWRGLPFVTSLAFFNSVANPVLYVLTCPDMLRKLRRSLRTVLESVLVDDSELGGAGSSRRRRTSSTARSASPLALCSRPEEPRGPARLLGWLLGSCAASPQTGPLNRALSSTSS
Assay: Radioligand displacement assay (3H-PGD2) on hCRTH2 receptor membranes
Assay type: binding
Conditions: antagonistic activity, 3H-PGD2 radioligand displacement, HEK293-hCRTH2 membranes
The scale used: pIC50 is minus the common logarithm of the concentration in molar units.

// solved cases for pIC50 follow
Molecule	pIC50
O=C(O)COc1ccc(Cl)cc1C1c2ccccc2CCN1C(=O)CCn1ncc2ccccc21 (racemic)	7.45
O=C(O)COc1ccc(Cl)cc1C1c2ccccc2CCN1C(=O)CCn1ccc2cccnc21 (racemic)	6.71
Cc1ccccc1[C@@H]1C[C@H]1C(=O)N1CCc2ccccc2[C@H]1c1cc(Cl)ccc1OCC(=O)O	8.49

// query For C[C@@H]1C[C@H]1C(=O)N1CCc2ccccc2[C@H]1c1cc(Cl)ccc1OCC(=O)O , what is its reported pIC50?
// result 7.09

---

Target: hCRTH2 receptor (Homo sapiens, UniProt Q9Y5Y4)
Construct: expressed in transfected cells; host or cells: HEK293
Assay: Radioligand displacement assay (3H-PGD2) on hCRTH2 receptor membranes
Format: binding
Conditions: antagonistic activity, 3H-PGD2 radioligand displacement, HEK293-hCRTH2 membranes
// reported pIC50 for each item listed
The scale used: pIC50 is minus the common logarithm of the concentration in molar units.

Compound	pIC50
Cc1nn(CCC(=O)N2CCc3cc(F)ccc3[C@H]2c2cc(Cl)ccc2OCC(=O)O)c2cc(F)ccc12	6.81
O=C(O)COc1ccc(Cl)cc1C1c2ccccc2CCN1C(=O)COc1cccnc1F (racemic)	6.70
O=C(O)COc1ccc(Cl)cc1[C@@H]1c2ccc(F)cc2CCN1C(=O)CCn1ncc2ccc(Cl)cc21	7.33

Kindly consider the entry below.
// query Value wanted: pIC50 (hCRTH2 receptor (Homo sapiens, UniProt Q9Y5Y4)) of entry Cc1nc(C)c(C2CC2C(=O)N2CCc3ccccc3C2c2cc(Cl)ccc2OCC(=O)O)s1 (racemic)
// result 6.40

---

Target: hCRTH2 receptor (Homo sapiens, UniProt Q9Y5Y4)
Construct: expressed in transfected cells; host or cells: HEK293
Assay: Radioligand displacement assay (3H-PGD2) on hCRTH2 receptor membranes
Format: binding
Settings: antagonistic activity; 3H-PGD2 displacement on HEK293-hCRTH2 membrane fragments
// reported IC50 for each item listed
Please answer using the number first and the unit second.

Molecule	Val
O=C(O)COc1ccc(F)cc1C1c2ccccc2CCN1C(=O)CNS(=O)(=O)c1ccccc1 (racemic) [Example 205]	928 nM
CCS(=O)(=O)c1ccc2c(c1)C(c1cc(F)ccc1OCC(=O)O)N(C(=O)OCc1ccccc1)CC2 (racemic) [Example 181]	572 nM

// query Value wanted: IC50 (hCRTH2 receptor (Homo sapiens, UniProt Q9Y5Y4)) of entry O=C(O)COc1ccc(Cl)cc1C1c2cccc(F)c2CCN1C(=O)COCc1ccccc1Cl (racemic) [Example 120]
// result 33.3 nM
